# Test system: K562
# ASSAY NAME: NCI tumour cell line growth inhibition, 48 h
Activity calls are given as the source filed them. Rule as the data show it: active = GI50 up to about 1.1 µM and inactive = higher.
Returns: one label drawn from True = active, False = inactive

O=[N+]([O-])c1cccc(C2=NN(c3ccccc3)C[N+](c3ccc(Br)cc3)=N2)c1	False
CN(C)CCCN1c2ccccc2CCc2cc([N+](=O)[O-])ccc21	False
COc1ccc(OC)c(C[P+](c2ccccc2)(c2ccccc2)c2ccccc2)c1	True

Query string: So what was the verdict on CCOC(=O)C1(CC(=O)O)CCCC1=O (stereo unspecified) in this test?
Result string: False

Query string: What is the recorded call for this compound in the test? COC(C)(C)/C=C/c1[nH]c2ccccc2c1CC(=O)NCCc1cn(C(c2ccccc2)(c2ccccc2)c2ccccc2)cn1
Result string: False

Query string: Each compound tested received a call. Report the one for NNS(=O)(=O)c1ccc(/C=C2\NC(=O)NC2=O)cc1 .
Result string: False

---

# Tested on: SNB-75
# ASSAY NAME: NCI tumour cell line growth inhibition, 48 h
Calls of active or inactive are those of the source. Rule as the data show it: active = GI50 up to about 1.1 µM and inactive = higher.
REPORTED METRIC: GI50

Solved entries:
C=C(c1nc2ccc(Cl)cc2[nH]c1=O)C(O)c1ccc(C(O)C(=O)c2nc3ccc(Cl)cc3[nH]c2=O)cc1 (configuration not stated)	> 100 µM (inactive)
CCO[C@@H]1C2C=CC(C2)[C@H]1[N+](=O)[O-] (some centres not stated)	64.9 µM (inactive)
O=C1CC(c2cccc([N+](=O)[O-])c2)C2(C(=O)NC(=O)NC2=O)C(c2cccc([N+](=O)[O-])c2)C1 (configuration not stated)	> 100 µM (inactive)
N#C/C(c1nc2ccccc2[nH]1)=c1\s/c(=C/c2ccc(Cl)cc2)c(=O)n1-c1ccccc1	37.3 µM (inactive)
CCSC1=N/C(=C\c2ccco2)C(=O)N1	> 100 µM (inactive)

Query string: Provide only the value of recorded GI50 for CC(=O)OCC1OC(n2cnc(C(N)=S)c2N)C(OC(C)=O)C1OC(C)=O (configuration not stated)
Result string: > 100 µM (inactive)

Query string: Provide only the value of recorded GI50 for C/C(=N\NC(=O)CC#N)C(CN1CCCCC1)C(c1ccccc1)c1c(O)c2ccccc2oc1=O (configuration not stated)
Result string: 67.5 µM (inactive)

Query string: Consider the molecule COc1ccc(/C=C2\c3cc(OC)c(OC)cc3CCN2C(=O)c2ccccc2)cc1OC and give its recorded GI50.
Result string: 32 µM (inactive)

Query string: Read off the recorded GI50 for O=C(CC1=Nc2nnc(-c3nnc4n3C(=O)C(CC(=O)c3cccnc3)=N4)n2C1=O)c1cccnc1
Result string: > 100 µM (inactive)

Query string: Give GI50 for the following molecule: COc1cc2c(cc1OCCOS(C)(=O)=O)N=C[C@@H]1CCCN1C2=O
Result string: 54.1 µM (inactive)

Query string: Please indicate GI50 recorded for COc1cc2ccc(C(C)NCC#N)cc2cc1OC (configuration not stated)
Result string: > 100 µM (inactive)

Query string: Please report GI50 for the following molecule: CC(=O)Oc1ccc(/C=C/C(=O)OCCCOC(=O)/C=C/c2ccc(OC(C)=O)c(OC(C)=O)c2)cc1OC(C)=O
Result string: > 100 µM (inactive)

---

# Test system: IGROV-1
# ASSAY NAME: NCI tumour cell line growth inhibition, 48 h
Activity calls are given as the source filed them. Rule as the data show it: active = GI50 up to about 1.1 µM and inactive = higher.
REPORTED METRIC: GI50

Completed entries (count: 6):
CN(C)CCC(/C=C/c1ccccc1)=N\Nc1ccc(Cl)cc1Cl	8.02 µM (inactive)
O=C(O)[C@H]1NC[C@H]2C(Br)=NO[C@@H]12	> 100 µM (inactive)
CCn1cc(C(=O)O)c(=O)c2ccc(C)nc21 [NALIDIXIC ACID]	> 100 µM (inactive)
O=C1Nc2cc([N+](=O)[O-])ccc2N/C1=C/C(=O)c1ccc(Cl)cc1	12.3 µM (inactive)
Cc1n[nH]c(=S)n(C)c1=S	> 100 µM (inactive)
COC(=O)C(=O)C(C#N)c1ccc(CC#N)cc1 (centres undefined)	> 100 µM (inactive)

Query string: Identify the reported GI50 for the following entry. CCCCCCCCCC(=O)OCC1OC(n2cc(F)c(=O)[nH]c2=O)C(NC(=O)OCc2ccccc2)C(OC(=O)CCCCCCCCC)C1O (centres undefined)
Result string: > 100 µM (inactive)

Query string: // fetch GI50 given entry COc1cc(C(=O)NC(CCN)(c2ccccc2)c2ccccc2)cc(OC)c1OC
Result string: 25.1 µM (inactive)

Query string: State its GI50 for this compound: COc1ccc(-c2nc(N)c(C#N)c3c2CCS(=O)(=O)c2ccc(C)cc2-3)cc1OC
Result string: 31.6 µM (inactive)

Query string: Note down GI50 recorded for COC(=O)c1ccccc1/C=C1/Cc2cccc(C)c2C1=O
Result string: > 100 µM (inactive)

Query string: Name the recorded GI50 of the compound listed here: COc1ccc(OCC(=O)O)c2c1CCC(C(C)C)C2=O (centres undefined)
Result string: > 100 µM (inactive)

Query string: Quick one: give measured GI50 for CCOC(=O)CC[C@H](NC(=O)c1nc[nH]c1[N+](=O)[O-])C(=O)OCC
Result string: > 100 µM (inactive)

Query string: Tell me GI50 reported for COC(C)(C)/C=C/c1[nH]c2ccccc2c1CC(=O)NCCc1cn(C(c2ccccc2)(c2ccccc2)c2ccccc2)cn1
Result string: 5.4 µM (inactive)

Query string: Identify the reported GI50 for the following entry. Cc1cc(N(CCC#N)S(C)(=O)=O)ccc1C=O
Result string: > 100 µM (inactive)

Query string: Note down GI50 recorded for CC(OCc1ccccc1)C(NC(=O)C1CSSCC(NC(=O)C(Cc2ccccc2)NC(=O)OCc2ccccc2)C(=O)NC(Cc2ccccc2)C(=O)NC(Cc2cn(C=O)c3ccccc23)C(=O)NC(CCCCNC(=O)OCc2ccccc2)C(=O)NC(C(C)OCc2ccccc2)C(=O)N1)C(N)=O (centres undefined)
Result string: 22.6 µM (inactive)

Query string: Find the measured GI50 of C[C@H](C1CC2(C)OC2(C)C(=O)O1)[C@H]1CC[C@H]2[C@@H]3[C@@H]4O[C@@H]4[C@@]4(O)CC=CC(=O)[C@]4(C)[C@H]3CC[C@]12C (some centres undefined) and report it.
Result string: > 50 µM (inactive)

Query string: For the compound NNC(=O)Nc1cccnc1 , give its measured GI50 value.
Result string: > 100 µM (inactive)
